The values you see were collected from patent US9783505B2.

Target: His-PKC-theta (Homo sapiens, UniProt Q04759)
Construct: His; purchased Invitrogen
Sequence (Q04759 whole entry): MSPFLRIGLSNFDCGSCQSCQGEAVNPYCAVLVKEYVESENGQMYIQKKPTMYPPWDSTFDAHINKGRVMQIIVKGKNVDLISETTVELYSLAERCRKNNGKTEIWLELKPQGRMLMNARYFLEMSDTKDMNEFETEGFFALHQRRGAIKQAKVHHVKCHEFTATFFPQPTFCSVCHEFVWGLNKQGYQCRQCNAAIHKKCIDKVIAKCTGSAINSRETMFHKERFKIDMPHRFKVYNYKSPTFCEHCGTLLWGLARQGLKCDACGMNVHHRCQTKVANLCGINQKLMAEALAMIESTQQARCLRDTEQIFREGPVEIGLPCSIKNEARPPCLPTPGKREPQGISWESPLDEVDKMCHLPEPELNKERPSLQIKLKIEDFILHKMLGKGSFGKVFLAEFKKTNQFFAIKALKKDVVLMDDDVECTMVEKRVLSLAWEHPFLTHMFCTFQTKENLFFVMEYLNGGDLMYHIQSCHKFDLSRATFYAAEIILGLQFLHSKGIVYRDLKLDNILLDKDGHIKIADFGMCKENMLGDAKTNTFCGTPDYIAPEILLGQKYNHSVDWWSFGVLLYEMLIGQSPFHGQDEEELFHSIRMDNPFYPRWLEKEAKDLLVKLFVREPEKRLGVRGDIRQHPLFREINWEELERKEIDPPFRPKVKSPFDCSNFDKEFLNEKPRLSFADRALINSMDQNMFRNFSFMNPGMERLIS
Assay: PKC-theta Assay (384-well time resolved fluorescence, IMAP TR-FRET)
Format: biochemical
Settings: Table 2; read-out: Act. Level (IC50 in the PKC-theta Assay)
pIC50: −log10 of the molar value.
reported_endpoint: pIC50

## Task Quickly give me recorded pIC50 for CC1(C)[C@H](CO)C[C@@H]1Nc1nc(NCCc2cccc(Cl)c2)ncc1C#N
## Result 5.70 to 6.10

----------
Target: His-PKC-theta (Homo sapiens, UniProt Q04759)
Construct: His; purchased Invitrogen
Test: PKC-theta Assay (384-well time resolved fluorescence, IMAP TR-FRET)
Assay type: biochemical
Conditions: read-out: Act. Level (IC50 in the PKC-theta Assay)
reported_endpoint: IC50

Record excerpt, results attached:
molecule	reported_endpoint	result
Cc1nc2ccccc2n1CCNc1ncc(C#N)c(N[C@@H]2CC[C@H](O)C(C)(C)C2)n1 [Cmpd 207]	IC50	2000 to 10000 nM
N#Cc1cnc(NCCc2ccc3ccccc3n2)nc1N[C@H]1CC[C@@H](O)CC1 [Cmpd 150]	IC50	2000 to 10000 nM
CC1(C)[C@H](O)C[C@@H]1Nc1nc(NCc2cncnc2-c2ccc(F)cc2)ncc1C#N [Cmpd 133]	IC50	100 to 800 nM
Cc1ncccc1CCNc1ncc(C#N)c(N[C@@H]2CC[C@H](O)C(C)(C)C2)n1 [Cmpd 258]	IC50	100 to 800 nM
N#Cc1cnc(NCCc2c[nH]c3ccccc23)nc1N[C@H]1CC[C@@H](O)CC1 [Cmpd 154]	IC50	100 to 800 nM
CC1(C)C[C@H](Nc2nc(NCCc3cccnc3)ncc2C#N)CC[C@@H]1O [Cmpd 281]	IC50	800 to 2000 nM
CC1(C)C[C@H](Nc2nc(NCCc3ccnc(C(F)(F)F)c3)ncc2C#N)CC[C@@H]1O [Cmpd 272]	IC50	100 to 800 nM
Cc1[nH]c2ccccc2c1CCNc1ncc(C#N)c(N[C@@H]2CC[C@H](O)C(C)(C)C2)n1 [Cmpd 168]	IC50	100 to 800 nM

Please examine the following record next.
## Task Quickly give me recorded IC50 for CC1(C)C(O)C[C@@H]1Nc1nc(NCc2cncnc2OCCC(F)(F)F)ncc1C#N (stereo partly shown) [Cmpd 107]
## Result 100 to 800 nM
